Where these numbers come from: the supplement of paper PMC10567573

B1: C9orf9 (parent)
chain: TKHKCRQLTKASLKPRGCSKPPWR

variants of: B1; assay: protein stability index of a GFP-peptide fusion (GPS, HEK-293T) (PSI 1-6); higher = more stable; settings: c terminus: a fixed tail appended;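 further: lentivirally expressed fusions sorted by FACS into six bins by GFP to DsRed ratio, PSI derived from sequencing read proportions per bin multiplied by bin number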
Response key: 1.0 means protein stability index >= 3; 0.0 means protein stability index < 3.

Please indicate if the recorded protein stability index for W23N meets or exceeds 3.
1.0

Check this variant for protein stability index at or above 3: S12I
0.0

Please indicate if the recorded protein stability index for K10H meets or exceeds 3.
0.0

Say whether R6I shows protein stability index of 3 or more.
0.0

Determine whether measured protein stability index meets or exceeds 3 for A11V
0.0

Test whether the variant S19I records protein stability index of 3 or higher.
0.0

Does the reported protein stability index for C5M fall at or above the 3 mark?
0.0

# check: protein stability index of C18T is greater than or equal to 3
1.0

Check this variant for protein stability index at or above 3: P22F
0.0

Form field: protein stability index at least 3? Entry: L13I
1.0

Given the entry Q7K , answer whether its protein stability index meets or surpasses 3.
1.0

Entry S19D : is its protein stability index no less than 3?
0.0

Given R16Y , state whether its protein stability index is at least 3.
0.0

Textbook exercise: given the entry K4N , state whether its protein stability index is greater than or equal to 3.
0.0

Is reported protein stability index greater than or equal to 3 here: G17K
1.0

Textbook exercise: given the entry L8P , state whether its protein stability index is greater than or equal to 3.
1.0

Threshold query (protein stability index >= 3) on T1C
0.0

Dear colleague, could you confirm whether P15E has protein stability index at or above 3?
0.0

Kindly determine if protein stability index recorded for K10P is above or exactly 3.
0.0

Does the reported protein stability index for R24I fall at or above the 3 mark?
0.0

Please check the record K4S and state if its protein stability index is at or above 3.
0.0

Entry T9G : is its protein stability index no less than 3?
0.0

Is the recorded value of protein stability index equal to or greater than 3 for this variant? L13G
1.0

Check if protein stability index >= 3 (inclusive). Item: W23A
1.0

Decide: protein stability index of C18L >= 3?
1.0

Is protein stability index for K2A at or above 3?
0.0

Test whether the variant C18S records protein stability index of 3 or higher.
0.0

Entry K14C : is its protein stability index no less than 3?
0.0

I'd appreciate it if you could say whether K20T has protein stability index at least equal to 3.
0.0

Could you please find out whether W23F has protein stability index that meets 3 or exceeds it?
0.0

Does R16K have a reported protein stability index of at least 3?
0.0

I'd appreciate it if you could say whether S12K has protein stability index at least equal to 3.
1.0

hey, is protein stability index for this one >= 3? C5K
1.0

Assess whether reported protein stability index for C18W sits at 3 or higher.
0.0

Hello, I need to know if A11E has measured protein stability index not below 3. Thanks!
0.0

API: above_or_equal(metric=protein stability index, cutoff=3) for item G17I
0.0

Is protein stability index at least 3? Consider P22N
0.0

For this variant, is measured protein stability index 3 or higher? K2P
1.0

Assess whether reported protein stability index for L8G sits at 3 or higher.
0.0

Would you say K10E shows protein stability index at minimum 3?
0.0

Assess whether reported protein stability index for L13R sits at 3 or higher.
1.0

Would you say G17P shows protein stability index at minimum 3?
0.0

Identify whether the reported protein stability index of the following variant is 3 or greater: R24M
0.0

Determine whether measured protein stability index meets or exceeds 3 for T9I
0.0

Determine whether this variant has protein stability index no lower than 3: L13Y
0.0

Quick check: does K14S have protein stability index greater than or equal to 3?
0.0

Is it the case that T9A has protein stability index reaching or exceeding 3?
0.0

Could you verify whether the entry C5V shows protein stability index of no less than 3?
0.0

Kindly determine if protein stability index recorded for R24S is above or exactly 3.
0.0

Check this variant for protein stability index at or above 3: P22R
0.0

hey, is protein stability index for this one >= 3? P22W
0.0

# bool: protein stability index of R16P >= 3
1.0

Evaluate R24F : protein stability index at minimum 3?
0.0

I'd appreciate it if you could say whether L13V has protein stability index at least equal to 3.
0.0

Please check the record K20C and state if its protein stability index is at or above 3.
0.0

State whether the measured protein stability index reaches 3, counting equality as reaching it, for A11P
1.0

Textbook exercise: given the entry G17T , state whether its protein stability index is greater than or equal to 3.
0.0

Could you tell me if the measured protein stability index of Q7C reaches 3 or more?
0.0

Answer whether protein stability index of R24T is greater than or equal to 3.
0.0

Test whether the variant L13T records protein stability index of 3 or higher.
1.0

Please indicate if the recorded protein stability index for H3D meets or exceeds 3.
1.0

Decide: protein stability index of R16I >= 3?
0.0

Check this variant for protein stability index at or above 3: W23I
1.0

In plain terms: is recorded protein stability index at least 3 for P15H ?
1.0

Could you please find out whether C18N has protein stability index that meets 3 or exceeds it?
1.0
